- assayed_system: human mGluR2 receptor (Homo sapiens, UniProt Q14416)
- Construct: expressed in transfected cells; host or cells: CHO cells
- Sequence (Q14416 19-872): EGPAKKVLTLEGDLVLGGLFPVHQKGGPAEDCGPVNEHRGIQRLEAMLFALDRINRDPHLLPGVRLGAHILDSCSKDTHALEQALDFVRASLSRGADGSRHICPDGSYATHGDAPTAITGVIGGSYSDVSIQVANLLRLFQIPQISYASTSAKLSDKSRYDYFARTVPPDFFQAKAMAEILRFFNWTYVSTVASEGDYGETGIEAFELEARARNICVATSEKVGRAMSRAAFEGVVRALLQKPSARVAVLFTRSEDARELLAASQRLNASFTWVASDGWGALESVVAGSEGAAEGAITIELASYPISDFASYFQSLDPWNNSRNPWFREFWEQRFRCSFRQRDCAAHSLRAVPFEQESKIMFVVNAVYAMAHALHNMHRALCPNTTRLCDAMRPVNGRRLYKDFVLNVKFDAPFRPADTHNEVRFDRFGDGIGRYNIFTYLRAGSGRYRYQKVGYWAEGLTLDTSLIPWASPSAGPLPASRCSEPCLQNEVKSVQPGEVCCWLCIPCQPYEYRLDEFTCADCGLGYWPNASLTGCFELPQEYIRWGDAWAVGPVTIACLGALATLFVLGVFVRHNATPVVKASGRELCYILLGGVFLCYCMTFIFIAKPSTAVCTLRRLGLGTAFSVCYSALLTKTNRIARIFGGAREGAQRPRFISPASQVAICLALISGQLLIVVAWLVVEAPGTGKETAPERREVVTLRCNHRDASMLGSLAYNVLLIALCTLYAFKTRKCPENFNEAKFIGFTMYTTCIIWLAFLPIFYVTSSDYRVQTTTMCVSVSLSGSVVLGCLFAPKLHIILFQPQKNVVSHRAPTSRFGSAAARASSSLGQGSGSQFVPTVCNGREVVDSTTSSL
- test_protocol: [35S]GTPγS binding assay (PAM assay), membranes from CHO cells transfected with human mGluR2
- Type: biochemical
- condition_context: in presence of glutamate at predetermined EC25 concentration; averages of duplicate values of 11-concentration response curves; read-out: GTPγS - hR2 PAM pEC50 (converted)
property: EC50 (nM)

[
  {
    "compound": "CCCCn1ccc(N2C[C@@H]3[C@H](C2)[C@H]3c2ccccc2)c(Cl)c1=O [Compound E4]",
    "EC50 [nM]": 89.1
  },
  {
    "compound": "CCCCn1ccc(N2C[C@@H]3[C@H](COc4cc(Cl)ccc4Cl)[C@@H]3C2)c(Cl)c1=O [Compound E3]",
    "EC50 [nM]": 126
  }
]

A. CCCCn1ccc(N2C[C@@H]3[C@@H](COc4cc(Cl)ccc4Cl)[C@@H]3C2)c(Cl)c1=O [Compound E2]
B. O=c1c(Cl)c(N2CC3[C@H](C2)[C@H]3c2ccccc2)ccn1CC1CC1 (stereo partly shown) [Compound E1]
Which value of EC50 is greater, the one for A or the one for B ? Refer to your chosen entry by its label in the reply.
B

The origin of these recorded values is patent US8691849B2.
